// reported Observed Efficacy (%) per item
System: Botrytis cinerea
Assay: Botrytis cinerea test in tomato (preventive, glasshouse)
Type: in vivo
Conditions: Table F5; single compound, Conc. 0.1 ppm; Botrytis cinerea in tomato, preventive
Report as a plain number; the unit % is understood.

N#Cc1sc2c(=O)c3ccccc3c(=O)c=2sc1C#N	45

Form: Entry = CC1CC(C)(C)c2c(F)ccc(NC(=O)c3cn(C)nc3C(F)F)c21 (stereo not shown) | System = Botrytis cinerea | Observed Efficacy (%) = ____
41

What do you get for C[C@@H]1CC(C)(C)c2cccc(NC(=O)c3cn(C)nc3C(F)F)c21 ?
38

What do you get for Cn1cc(C(=O)Nc2cccc3c2[C@@H]2CC[C@H]3C2=C(Cl)Cl)c(C(F)F)n1 (racemic) ?
42

* * *

Tested on: Pyricularia oryzae
Assay: whole plant or invertebrate
Type: in vivo
Conditions: Pyricularia oryzae, read-out: Observed Efficacy
// reported pest or weed control at 5 ppm per item
Report as a plain number; the unit % is understood.

Worked cases, pest or weed control at 5 ppm given:
CCN(C)C=Nc1cc(C)cc(Cc2cccc(F)c2)c1C [Compound (I-4)]	23
CCN(C)C=Nc1cc(Cl)cc(Cc2cccc(C)c2)c1C [Compound (I-1)]	27
CCN(C)C=Nc1cc(F)cc(Cc2cccc(C)c2)c1C [Compound (I-5)]	37

Name the recorded pest or weed control at 5 ppm for CCN(C)C=Nc1cc(C)cc(Cc2ccc(C)cc2)c1C [Compound (I-2)] .
23

* * *

Test system: Erysiphe cichoracearum
Test: Erysiphe cichoracearum test in cucumber (preventive, glasshouse)
Format: in vivo
Conditions: single compound, 0.05 ppm, preventive spray on cucumber
Rule for this label: met means Observed Efficacy (%) is less than 20%; not met means Observed Efficacy (%) is at least 20%.

Example cases with answers are listed next.
O=C1c2ccccc2C(=O)N1SC(Cl)(Cl)Cl	not met
C[C@@H]1CC(C)(C)c2cccc(NC(=O)c3cn(C)nc3C(F)F)c21	not met
N#Cc1sc2c(=O)c3ccccc3c(=O)c=2sc1C#N	met
Cn1cc(C(=O)Nc2cccc3c2[C@@H]2CC[C@H]3C2=C(Cl)Cl)c(C(F)F)n1 (racemic)	not met
CC1CC(C)(C)c2c(F)ccc(NC(=O)c3cn(C)nc3C(F)F)c21 (stereo not shown)	not met

Does the reported Observed Efficacy (%) of CO/C=C(/C(=O)OC)c1ccccc1COc1cccc(C(F)(F)F)n1 stay below 20%?
met

What do you get for O=C(Nc1ccccc1-c1ccc(Cl)cc1)c1cccnc1Cl ?
not met

* * *

System: Pyricularia oryzae
Experiment: whole plant or invertebrate
Format: in vivo
Conditions: Pyricularia oryzae, read-out: Observed Efficacy
Readout: pest or weed control at 1 ppm
Remember to put the unit after the number in your answer.

Worked cases, pest or weed control at 1 ppm given:
CCN(C)C=Nc1cc(Cl)cc(Cc2cccc(C)c2)c1C	17%
CCN(C)C=Nc1cc(F)cc(Cc2cccc(C)c2)c1C	23%
CCN(C)C=Nc1cc(C)cc(Cc2cccc(F)c2)c1C	17%

# next compound below
Name the recorded pest or weed control at 1 ppm for CCN(C)C=Nc1cc(C)cc(Cc2ccc(C)cc2)c1C .
13%

* * *

Tested on: Erysiphe cichoracearum
Assay: Erysiphe cichoracearum test in cucumber (preventive, glasshouse)
Type: in vivo
Settings: single compound, 0.05 ppm, preventive spray on cucumber
Readout: Observed Efficacy (%)
Report as a plain number; the unit % is understood.

Worked cases, Observed Efficacy (%) given:
CNC(=O)/C(=N/OC)c1ccccc1Oc1ccccc1	14
O=[N+]([O-])c1cc(C(F)(F)F)c(Cl)c([N+](=O)[O-])c1Nc1ncc(C(F)(F)F)cc1Cl	11

# next molecule below
Form: Entry = CC(O)(Cn1cncn1)c1ccc(Oc2ccc(Cl)cc2)cc1C(F)(F)F (stereo not drawn) | System = Erysiphe cichoracearum | Observed Efficacy (%) = ____
21
